- TEST PROTOCOL: soluble fraction after stress (log2 fold change); higher = more stays soluble; pooled small domains, quantitative proteomics
- CONDITION SUMMARY: stress: pH 4
Please respond with reported soluble fraction (log2) for every item in the list.
// print number alone

Identify measured soluble fraction (log2) associated with HMLELTGEEEFVIRTLTRQGDLHINALVVETDIPINRMISLLFELEMKGVVKALVGGVYHLLG
-1.58

Read off the recorded soluble fraction (log2) for HMDGEMRRKRILQLLSEQTKPLSGTALAKQFGVSRQVIVQDIALLKSKEPAIISTYRGYVLGR
0.142

Return the recorded soluble fraction (log2) value; entry: HMKVEFDAMDKRILELMAKEYDTVLMARHLPLTPIVIDVRKKRIREVLNLPDATDAEIVIEAKEKDII
-1.47

Give soluble fraction (log2) for HMEVEIPSREALLGLVQKHLKPVSFDEFVSHFKLGDERQQVGIKRRLRAMERDGQLVYTKANSYGLPDRM
-0.197

Name the recorded soluble fraction (log2) of the sequence listed here: HMIENMQEYVRHIRAAVSDRLDLTREVEDDEIREVISQIVAEESRQNYLSLGERQTVIETVFNSMR
-2.17

Tell me its soluble fraction (log2) given HMGTTKGVVDVTVPNGRASQHVKLVVIDDDGGRVVYDGTNAPGDRIVKSVSGSGNVRVQIYLNNALVQEQS as the entry.
-0.306

Output soluble fraction (log2) of HMAIGDYYINASALNVRSGEGTNYRIIGALPQGQKVQVISENSGWSKINYNGQTGYIGTRYLSKTPV
0.22

###

Task for the reader: assign each of the following sequences its reported soluble fraction (log2).
- TEST PROTOCOL: soluble fraction after stress (log2 fold change); higher = more stays soluble; pooled small domains, quantitative proteomics
- CONDITION SUMMARY: stress: pH 4

Tell us which soluble fraction (log2) value is on record for HMGIAEAKRVIVRTLHDVLGPEADFLTEKIDVAQTAAELRVHAEKYRDMLVDMGKPKKSAAFWEAFEAALP
-0.65

State its soluble fraction (log2): HMKGERHNKILELIQQHAIDRQEDLLRYLKEAGFQVTQATVSRDIRELHLVKVAAGGGQYRYVSAAAAS
-0.255

Given the sequence HMNNDFIVKSTDSHKVNLRSQPDTHADIIKRLDDHTIVEKLKTVRKNWYLVQLKDTTTQGYVHKSQLERV , write its reported soluble fraction (log2).
0.21

Give soluble fraction (log2) for HMNDIVKIYTTHRIINIEGLAKNEPIMLYTINGTLIDKSVSSNGSAQLHVKGIGVYLVKWANNIVKVIVPN
0.199

Hello, please tell me recorded soluble fraction (log2) for this one: HMKQNVEAVIKERAIEKARAQVKAVSTHMALEAQSLSKEQLEFEIERIAAQIIDKMPSDFWND
-0.819

Look up and state reported soluble fraction (log2) for HMNRTKYYDFEGHPAKVVRLTLPVYLNKIGDEVVVYDSQKFAREASPISESQYNRMVAEIFQP
-0.0162

State its soluble fraction (log2) for this sequence: HMTNYSFIVNENFNNKRIDQVVANHYPKISRTKVNKIIKNNLLKLNGSTFNDPSAKVKLGDQIEFENL
0.00451

Look up soluble fraction (log2) of HMNINVRNTGIKAVENNIINLSSDQRTFTWASNDRKLITVPFDENPYSALAAWFKTDEGIEVYQTIEKKL and report it.
-0.294

Give recorded soluble fraction (log2). HMEFFIIDHNGQQAGPFSFDQLVQKGISPETLVWKQGMADWNPAWKVEELKAVLEAVEANQSNQKAQ
-1.3

Look up and report measured soluble fraction (log2) for this entry: HMELGYTPNNLRSVRAKYGLTQKQVAEITGLKTWHPVNRWEAPVEAAYHADMPHTKWLKLLDELSSR
-0.0144

In one line, give reported soluble fraction (log2) of the entry HMKSEMYIDLSNALLKMSERDKELLTYRYTMEMSSKEISQITGIKESNVNSYIRRAREKLLKIFNAMNK .
0.123

For the sequence HMEERDMKGSISDLVERYADQLTDEQLEEIVLGIKNGLLEEDVKSYFFLPAEDMRRIRTALEQVR , give its measured soluble fraction (log2) value.
-1.6

Supply measured soluble fraction (log2) of HMNFIPGEKINLKIVQEGKEKNQGVGYLSDGTMVIVENGSQKLGQDVEVVVIKNIQSSAGKIVFGDISK in your reply.
0.227

Please indicate soluble fraction (log2) recorded for HMKLTNIQYETLKVVVESRAKIDEEEGITIKLEDIKKYIDQAISFTGLVGDDEDYKKLFADMEYRFKIQ
-0.925

Quote soluble fraction (log2) reported for HMYNIDSFMTKNYPTMERFTLSDVQKKYKTTFGLFVKQDELASMIEKTGRFNITSSKNVKYVNR please.
0.313

Retrieve soluble fraction (log2) measured for HMVDDTGLPTVLISDGRLLERNLHRLHLDHTWLQRRLEENNIPSIQSLFLLTVDKQHQLYFLKK and print it.
-0.277

Hello, please tell me recorded soluble fraction (log2) for this one: HMVVVMEKNASSAEIEQVQERLRQAGFKIHLSQGVERTIIGAIGDRSQVDLGFLEALPGVEKVVPIMK
0.248

The measured values listed here are drawn from the domain aggregation screens of Martell et al. (2025).
